Reported % Control AMARE by item:
# System: redroot pigweed (Amaranthus retroflexus)
# method: Postemergence herbicidal activity
# Assay type: in vivo
# assay-conditions: post-emergent, 140 g ai/ha, after 14 days
endpoint: % Control AMARE (%)

In [3]: df
Out[3]:
                                    molecule  result_value
 0     Nc1cc(-c2ccc(F)c(F)c2F)nc(C(=O)O)c1Cl           100
 1   Cc1c(F)ccc(-c2cc(N)c(Cl)c(C(=O)O)n2)c1F            85
 2   COC(=O)c1nc(-c2ccc(C)c(OC)c2F)cc(N)c1Cl           100
 3  COC(=O)c1nc(-c2c(F)cc(F)c(OC)c2F)cc(N)c1Cl           100
 4  COC(=O)c1nc(-c2ccc(Cl)c(C(C)F)c2Cl)cc(N)c1Cl (centres unmarked)           100
 5  CC(C)(F)c1c(Cl)ccc(-c2cc(N)c(Cl)c(C(=O)O)n2)c1Cl           100
 6  COC(=O)c1nc(-c2ccc(Cl)c(C(=O)OC)c2F)cc(N)c1Cl            75
 7  COc1c(Cl)ccc(-c2cc(N)c(Cl)c(C(=O)O)n2)c1Cl           100
 8  COC(=O)c1nc(-c2ccc(F)c(OC)c2Cl)cc(NC(C)=O)c1Cl            40
 9  CCC(F)c1c(Cl)ccc(-c2cc(N)c(Cl)c(C(=O)OC)n2)c1F (centres unmarked)           100
10  COC(=O)c1nc(-c2ccc(Cl)c(C(C)(C)F)c2F)cc(N)c1Cl           100

* * *

In this section we review reported pest or weed control at 140 g/ha values for a set of molecules.
# Tested on: redroot pigweed (Amaranthus retroflexus)
# method: Postemergence herbicidal activity
# Format: in vivo
# assay-conditions: Amaranthus retroflexus, post-emergence, 336 h, post-emergent, 140 g ai/ha, after 14 days; read-out: % Control AMARE
endpoint: pest or weed control at 140 g/ha

>>> df
                             molecule_smiles                          endpoint  result_value
 0  COC(=O)c1nc(-c2ccc(Cl)c(N(C)C)c2F)cc(N)c1Cl  pest or weed control at 140 g/ha          100%
 1  COC(=O)c1nc(-c2ccc(C(F)F)c(OC)c2F)cc(N)c1Cl  pest or weed control at 140 g/ha           80%
 2  CCOc1c(Cl)ccc(-c2cc(N)c(Cl)c(C(=O)OC)n2)c1F  pest or weed control at 140 g/ha           85%
 3  COC(=O)c1nc(-c2cc(OC)c(Cl)cc2F)cc(N)c1Cl  pest or weed control at 140 g/ha          100%
 4  COC(=O)c1nc(-c2ccc(Cl)c(OC)c2Cl)cc(N)c1Cl  pest or weed control at 140 g/ha          100%
 5  CCOc1cc(-c2cc(N)c(Cl)c(C(=O)OC)n2)c(F)cc1Cl  pest or weed control at 140 g/ha          100%
 6  COC(=O)c1nc(-c2ccc(Cl)c(OC)c2F)cc(N)c1Cl  pest or weed control at 140 g/ha          100%
 7  COC(=O)c1nc(-c2ccc(Cl)c(C#N)c2F)cc(N)c1Cl  pest or weed control at 140 g/ha           90%
 8  CCOc1c(Cl)cc(F)c(-c2cc(N)c(Cl)c(C(=O)OC)n2)c1F  pest or weed control at 140 g/ha           90%
 9  COC(=O)c1nc(-c2ccc(Cl)c(C(F)F)c2Cl)cc(N)c1Cl  pest or weed control at 140 g/ha          100%
10  COC(=O)c1nc(-c2ccc(C(F)F)c(OC)c2Cl)cc(N)c1Cl  pest or weed control at 140 g/ha           90%
11  COc1c(Cl)ccc(-c2cc(N)c(Cl)c(C(=O)O)n2)c1Cl  pest or weed control at 140 g/ha           90%

Cited source for all entries: patent US20070179060A1
